Reference source for all entries: patent US20060029603A1

target: T1, GST-human NOGO-A56 (human, UniProt P08515 1-218 = GST); test: SPR (Biacore) off-rate ranking, CHO-K1 transient supernatant over GST-human NOGO-A56 chip; single experiment
T1 construct: GST-tagged fusion expressed in E. coli BL21 and purified on glutathione-sepharose; coated on ELISA plates or amine-coupled to a CM5 chip; also called hNOGO; recombinant human NOGO
T1 sequence (P08515 1-218, tags or fused parts left off): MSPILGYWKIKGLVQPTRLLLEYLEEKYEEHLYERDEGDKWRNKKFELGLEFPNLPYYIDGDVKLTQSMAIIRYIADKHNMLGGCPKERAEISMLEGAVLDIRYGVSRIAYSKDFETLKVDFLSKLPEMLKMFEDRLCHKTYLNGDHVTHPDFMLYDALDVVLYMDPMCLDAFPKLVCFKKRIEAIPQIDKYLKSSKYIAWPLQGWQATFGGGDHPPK
The entries below are paired with their reported koff.
Numbers only here, please. The scale is s⁻¹.

Enquiry: Reported koff for H15L18 (antibody, human IgG1, kappa, V domains shown, Tested as CHO-K1 supernatant) VH: QVQLVQSGAEVVKPGASVKLSCKASGYTFTSYWMHWVKQRPGQGLEWIGNINPSNGGTNYNEKFKSKATLTVDTSSSTAYMELSSLRSEDSAVYYCELGQGYWGQGTLVTVSS VL: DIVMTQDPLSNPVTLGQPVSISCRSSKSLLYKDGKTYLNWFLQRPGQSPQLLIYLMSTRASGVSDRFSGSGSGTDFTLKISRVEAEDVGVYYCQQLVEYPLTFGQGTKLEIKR : what is it?
Return: 0.00594

Enquiry: Reported koff for H14L16 (antibody, human IgG1, kappa, V domains shown) VH: QVQLVQSGAEVVKPGASVKLSCKASGYTFTSYWMHWVKQAPGQGLEWIGNINPSNGGTNYNEKFKSRATLTRDTSTSTAYMELSSLRSEDTAVYYCELGQGYWGQGTLVTVSS VL: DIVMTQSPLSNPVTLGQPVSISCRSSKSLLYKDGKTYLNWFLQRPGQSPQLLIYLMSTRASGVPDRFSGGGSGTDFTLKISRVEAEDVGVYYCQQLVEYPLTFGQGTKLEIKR : what is it?
Return: 0.0089

Enquiry: Reported koff for H15L13 (antibody, human IgG1, kappa, V domains shown, Tested as CHO-K1 supernatant) VH: QVQLVQSGAEVVKPGASVKLSCKASGYTFTSYWMHWVKQRPGQGLEWIGNINPSNGGTNYNEKFKSKATLTVDTSSSTAYMELSSLRSEDSAVYYCELGQGYWGQGTLVTVSS VL: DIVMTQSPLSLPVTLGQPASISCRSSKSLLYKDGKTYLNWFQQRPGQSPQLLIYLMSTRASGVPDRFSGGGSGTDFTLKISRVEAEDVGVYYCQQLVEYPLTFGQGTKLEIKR : what is it?
Return: 0.00965

Enquiry: Reported koff for H6L18 (antibody, human IgG1, kappa, V domains shown, Tested as CHO-K1 supernatant) VH: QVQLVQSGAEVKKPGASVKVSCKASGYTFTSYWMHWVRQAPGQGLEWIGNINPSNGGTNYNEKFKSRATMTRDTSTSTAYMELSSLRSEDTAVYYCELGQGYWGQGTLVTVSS VL: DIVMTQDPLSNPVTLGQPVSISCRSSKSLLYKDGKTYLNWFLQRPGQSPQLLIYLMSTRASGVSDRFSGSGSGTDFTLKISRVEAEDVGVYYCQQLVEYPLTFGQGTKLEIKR : what is it?
Return: 0.0106
